Target: T1, IL-18 receptor (IL-18Rα and IL-18Rβ) (UniProt Q13478 19-541; O95256 20-599, limits assumed)
T1 sequence (looked up) 1: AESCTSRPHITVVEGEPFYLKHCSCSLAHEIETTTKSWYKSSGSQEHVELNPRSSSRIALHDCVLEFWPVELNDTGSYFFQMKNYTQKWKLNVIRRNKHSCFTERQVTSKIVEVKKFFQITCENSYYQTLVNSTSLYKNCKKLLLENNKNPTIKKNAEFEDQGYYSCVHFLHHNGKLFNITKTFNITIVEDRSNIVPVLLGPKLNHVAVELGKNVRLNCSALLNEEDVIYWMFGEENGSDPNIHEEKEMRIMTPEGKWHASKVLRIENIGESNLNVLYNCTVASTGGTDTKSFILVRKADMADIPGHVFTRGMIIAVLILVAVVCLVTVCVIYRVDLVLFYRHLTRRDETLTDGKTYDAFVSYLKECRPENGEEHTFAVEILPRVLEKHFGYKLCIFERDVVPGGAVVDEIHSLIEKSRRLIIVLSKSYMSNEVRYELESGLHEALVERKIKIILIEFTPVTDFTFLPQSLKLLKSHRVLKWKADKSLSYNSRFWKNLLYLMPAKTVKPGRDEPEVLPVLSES
T1 sequence (looked up) 2: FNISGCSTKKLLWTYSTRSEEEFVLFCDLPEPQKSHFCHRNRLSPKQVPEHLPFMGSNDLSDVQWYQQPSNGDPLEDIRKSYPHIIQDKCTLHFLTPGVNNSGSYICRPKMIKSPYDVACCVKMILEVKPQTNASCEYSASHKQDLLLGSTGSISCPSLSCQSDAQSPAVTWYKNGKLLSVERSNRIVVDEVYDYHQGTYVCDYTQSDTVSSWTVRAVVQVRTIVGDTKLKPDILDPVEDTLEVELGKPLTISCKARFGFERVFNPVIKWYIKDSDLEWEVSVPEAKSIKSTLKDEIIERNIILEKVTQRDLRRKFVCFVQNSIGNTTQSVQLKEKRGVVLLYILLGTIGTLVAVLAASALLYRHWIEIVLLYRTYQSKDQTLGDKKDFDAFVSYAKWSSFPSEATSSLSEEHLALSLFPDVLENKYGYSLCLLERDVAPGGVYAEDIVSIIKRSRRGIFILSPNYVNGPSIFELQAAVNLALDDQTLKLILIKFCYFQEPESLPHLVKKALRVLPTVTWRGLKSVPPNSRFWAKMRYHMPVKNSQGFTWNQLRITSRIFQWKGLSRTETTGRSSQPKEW
Experiment: cell-based or functional assay
PROPERTY_MEASURED: PBMC IFN gamma EC50 relative to WT-IL18, run 3

BINDER	REPORTED
hIL18 (G3T, K53A, M60K) - KiH (Fc fusion) YFTKLESKLSVIRNLNDQVLFIDQGNRPLFEDMTDSDMRDNAPRTIFIISMYADSQPRGKAVTISVKSEKISTLSSENKIISFKEMNPPDNIKDTKSDIIFFQRSVPGHDNKMQFESSSYEGYFLASEKERDLFKLILKKEDELGDRSIMFTVQNED	1
hIL18 (G3T, E6K, K53S, M60K) - KiH (Fc fusion) YFTKLKSKLSVIRNLNDQVLFIDQGNRPLFEDMTDSDMRDNAPRTIFIISMYSDSQPRGKAVTISVKSEKISTLSSENKIISFKEMNPPDNIKDTKSDIIFFQRSVPGHDNKMQFESSSYEGYFLASEKERDLFKLILKKEDELGDRSIMFTVQNED	0.26
